Task for the reader: assign each of the following compounds its reported speed of sound.
Conditions: 308.15 K; 100 kPa; Liquid; Frequency=3 MHz; Sing-around technique in a fixed-path interferometer
Numbers only, in m/s.

Would you please look over these solved cases?
# Compound, Observed property, Recorded value
measured = [
    ("CCCCO", "speed of sound", 1207.5),
    ("CCCCCCCC[n+]1ccn(C)c1.F[B-](F)(F)F [1-methyl-3-octylimidazolium tetrafluoroborate]", "speed of sound", 1458.5),
    ("CC(C)(C)O", "speed of sound", 1082),
]

Shifting focus to the compound that follows.
Ask: Look up and state reported speed of sound for `CC(C)CO`
Reply: 1155.9

The measured values listed here are drawn from the NIST ThermoML archive (doi:10.1016/j.tca.2016.03.026).
